Target: T1, ADAR1-Zα (UniProt P55265 134-198)
T1 sequence: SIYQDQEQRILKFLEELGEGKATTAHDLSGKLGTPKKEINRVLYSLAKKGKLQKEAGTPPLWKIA
Assay: SPR
For each entry below, report its Kd value.
Quick note: unit goes after the number.

| binder | Kd |
| --- | --- |
| A14 (ssDNA) DNA: TTCAGCACTCCACGCATAGCACGCCGCCGAAGCAAACCCACGTCCTCGCCCACGGCCCTATGCGTGCTACCGTGAA | 96.7 nM |

Batch: Kd for all items listed.
1. A15 (ssDNA) DNA: TTCAGCACTCCACGCATAGCCCGGCGTGAAGACCCGTGTGCTTTCAGGTCGCCCGCCCTATGCGTGCTACCGTGAA
2. A9 (ssDNA) DNA: TTCAGCACTCCACGCATAGCCGACCACCCCCCCGACCCGGTGTCACTCCCCGCGCCCCTATGCGTGCTACCGTGAA

["103 nM", "26.5 nM"]
